target: UniProtKB Q9NR20
Sequence (Q9NR20 whole entry): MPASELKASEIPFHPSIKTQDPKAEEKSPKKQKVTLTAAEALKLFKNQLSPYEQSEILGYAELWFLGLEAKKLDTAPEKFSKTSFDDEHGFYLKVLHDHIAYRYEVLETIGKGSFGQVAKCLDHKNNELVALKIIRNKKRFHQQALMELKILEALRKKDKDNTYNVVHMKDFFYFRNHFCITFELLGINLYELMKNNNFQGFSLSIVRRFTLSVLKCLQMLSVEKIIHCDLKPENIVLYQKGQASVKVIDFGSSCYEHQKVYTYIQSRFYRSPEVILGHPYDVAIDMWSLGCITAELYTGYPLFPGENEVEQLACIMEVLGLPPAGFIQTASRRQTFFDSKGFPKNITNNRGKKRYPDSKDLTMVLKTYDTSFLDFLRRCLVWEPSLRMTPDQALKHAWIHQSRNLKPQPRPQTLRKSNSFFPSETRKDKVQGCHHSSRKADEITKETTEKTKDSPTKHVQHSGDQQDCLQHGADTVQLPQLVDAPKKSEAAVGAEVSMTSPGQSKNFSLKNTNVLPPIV
pIC50: −log10 of the molar value.
reported.metric: pIC50

{"columns": ["molecule", "reading.qualifier", "observed.value"],
 "data": [
  ["O=C1NC(NC2CCCCCC2)=N/C1=C\\c1ccc2c(c1)CCO2", "=", 5.31],
  ["Cn1cc2cc(/C=C3\\N=C(NC45CC6CC(CC(C6)C4)C5)NC3=O)ccc2n1", "=", 5.37],
  ["Cn1cc2cc(/C=C3\\N=C(NC4CCCCC4)NC3=O)ccc2n1", "<", 5.00],
  ["O=C1NC(NC2CCCCC2)=N/C1=C\\c1ccc2[nH]ncc2c1", "<", 5.00],
  ["O=C1NC(N[C@H]2c3ccccc3C[C@@H]2O)=N/C1=C\\c1ccc2ncsc2c1", "=", 5.69],
  ["O=C1NC(NC2CCCCC(F)(F)C2)=N/C1=C\\c1ccc2ncsc2c1 (racemic)", "=", 6.76],
  ["Cn1cnc2ccc(/C=C3\\N=C(NC45CC6CC(CC(C6)C4)C5)NC3=O)cc21", "=", 7.10],
  ["COCC(Cc1ccccc1)NC1=N/C(=C\\c2ccc3ncsc3c2)C(=O)N1 (stereo unspecified)", "=", 6.43],
  ["COC(=O)[C@H](Cc1ccccc1)NC1=N/C(=C\\c2ccc3ncsc3c2)C(=O)N1", "=", 6.35],
  ["O=C1NC(NC2CCCCC2)=N/C1=C\\c1ccc2nnsc2c1", "<", 5.00],
  ["O=C1NC(NCc2nc3ccccc3s2)=N/C1=C\\c1ccc2ncsc2c1", "<", 5.00],
  ["O=C1NC(N[C@H]2CC[C@H](O)CC2)=N/C1=C\\c1ccc2ncsc2c1", "=", 5.75],
  ["CC(C)(C)OC(=O)N1CCC(CNC2=N/C(=C\\c3ccc4ncsc4c3)C(=O)N2)CC1", "<", 5.00],
  ["O=C1NC(NCc2ccccc2)=N/C1=C\\c1ccc2ncsc2c1", "=", 5.71],
  ["Cn1cnc2ccc(/C=C3\\N=C(NC4CCCCCC4)NC3=O)cc21", "=", 5.98],
  ["COC(CNC1=N/C(=C\\c2ccc3ncsc3c2)C(=O)N1)c1ccccc1 (racemic)", "=", 5.81],
  ["CC(C)(C)C(=O)OC12CC3CC(CC(NC4=N/C(=C\\c5ccc6ncsc6c5)C(=O)N4)(C3)C1)C2", "<", 5.00],
  ["CC(C)C[C@@H](CF)NC1=N/C(=C\\c2ccc3ncsc3c2)C(=O)N1", "=", 6.41],
  ["CN1CCCC(NC2=N/C(=C\\c3ccc4ncsc4c3)C(=O)N2)C1=O (racemic)", "=", 5.22],
  ["Cc1nc2ccc(/C=C3\\N=C(NC4CCCCC4)NC3=O)cc2s1", "<", 5.00],
  ["O=C1NC(N[C@@H]2CCCC[C@@H](O)C2)=N/C1=C\\c1ccc2ncsc2c1 (racemic)", "=", 5.90]
]}

Origin of the recorded values: ChEMBL document CHEMBL5360622
